Biological target: T1, bovine PACAP receptor protein Type I-A encoded by pBPR-T, expressed in CHO cells (UniProt Q29627 38-513)
T1 chain: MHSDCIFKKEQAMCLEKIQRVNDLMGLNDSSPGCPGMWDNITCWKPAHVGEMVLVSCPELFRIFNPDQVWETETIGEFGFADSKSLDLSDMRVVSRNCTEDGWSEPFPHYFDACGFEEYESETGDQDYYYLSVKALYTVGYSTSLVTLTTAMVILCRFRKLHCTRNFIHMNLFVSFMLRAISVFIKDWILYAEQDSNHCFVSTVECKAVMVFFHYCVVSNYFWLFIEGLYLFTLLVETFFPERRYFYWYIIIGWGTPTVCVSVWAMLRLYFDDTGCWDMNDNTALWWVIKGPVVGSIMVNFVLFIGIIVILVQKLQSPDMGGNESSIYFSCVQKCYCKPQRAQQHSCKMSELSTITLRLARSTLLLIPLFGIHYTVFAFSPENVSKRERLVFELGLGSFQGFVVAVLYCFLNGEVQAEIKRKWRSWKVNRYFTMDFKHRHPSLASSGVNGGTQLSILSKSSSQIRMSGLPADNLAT
Experiment: radioligand
Where no end group is shown, it is not given here.
Measurement Label: Kd (nM)
Answers are plain numbers, in nM.

Form: binder = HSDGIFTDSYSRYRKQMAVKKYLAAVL-NH2 (also: 125I label on one Tyr, which one not given here, also called radioactive iodine-labelled PACAP27) [[^125I]-PACAP27] ; Kd = 0.103

Recorded values, source patent US20020155533A1.
